# maps each entry to its %Inh
test system: MLK2; conditions: concentration: 1 μM, replicates: in singlicate; n = 1;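 also: KINOMEscan kinase panel screen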
Give just the numeric value; % need not be written.

Solved cases below.
O=C(NC1CCN(c2ccnc(Nc3ccc(F)cc3)n2)C1)c1cc2ccccc2s1 (centres unmarked) | 0
CNC(=O)c1ccccc1Nc1nc(Nc2ccc(N3CCOCC3)cc2)ncc1Cl.Cl | 82
Cl.c1ccc(-c2ccc3c(Nc4ccc5[nH]ccc5c4)ccnc3c2)nc1 | 0
Cl.NC(=O)c1cccc(Nc2nccc(Nc3ccc(Oc4c(Cl)cccc4Cl)c(Cl)c3)n2)c1 | 0
CC(C)(C)c1ccc2nccc(Nc3cccc(O)c3)c2c1 | 3

Kindly review the next compound as well.
For the compound shown here, "CN(C)S(=O)(=O)c1cc(-c2ccc3nccc(-c4cccc(S(N)(=O)=O)c4)c3c2)cnc1N" , give the reported %Inh.
22

###

test system: TGFBR2; settings: concentration: 1 μM, replicates: in singlicate; n = 1
readout: %Inh (%)
Give just the numeric value; % need not be written.

Requested read-out %Inh, target or system TGFBR2, entry "O=C(Nc1ccccc1F)NC1CCN(c2ccnc(Nc3ccc(F)cc3)n2)CC1"
0

Requested read-out %Inh, target or system TGFBR2, entry "Cl.c1ccc(-c2ccc3c(Nc4ccc5[nH]ccc5c4)ccnc3c2)nc1"
4

###

test system: CSNK2A2; conditions: concentration: 1 μM, replicates: in singlicate; n = 1
# maps each entry to its %Inh
Give just the numeric value; % need not be written.

CC(C)c1nc(-c2cccc(NS(=O)(=O)c3c(F)cccc3F)c2F)c(-c2ccnc(Nc3ccc(N4CCOCC4)nc3)n2)s1 [GSK2008607] | 32
O=C(Nc1ccccc1F)NC1CCN(c2ccnc(Nc3ccc(F)cc3)n2)CC1 [GSK1379800] | 0
Cl.Cl.NCC(NC(=O)c1cc(-c2ccccc2)c(-c2ccnc3[nH]ccc23)s1)c1ccccc1 (stereo not shown) [GSK1321561] | 38
Cc1cccc(Nc2nc(N[C@H]3CCNC3)ncc2C(N)=O)c1.Cl [GSK2197149] | 0
CSc1cccc2c(-c3ccncn3)c(-c3ccc(F)cc3)nn12 [GW514786] | 13
COc1cc(Nc2nccc(-c3c(-c4cccc(NC(=O)c5c(F)cccc5F)c4)nn4ccccc34)n2)cc(OC)c1OC [GSK323521] | 6
COCCOCCOc1cc2ncc3c4ccc(C#N)cc4[nH]c3c2cc1OC | 95.3
CN1CCN(Cc2cccc(-c3ccc4c(Nc5ccc(Oc6ccccc6)cc5)ccnc4c3)c2)CC1 [GW578342] | 0

For the molecule shown here, Cl.c1ccc(-c2ccc3c(Nc4ccc5[nH]ncc5c4)ccnc3c2)nc1 [GW440137] , give the reported %Inh.
8

For the molecule shown here, COc1cccc(C2=C(Nc3ccc(Cl)c(C(=O)O)c3)C(=O)NC2=O)c1 [SB-390769] , give the reported %Inh.
7

For the molecule shown here, C[C@@H](Oc1cc(-n2cnc3cc(-c4ccnc(NCCS(C)(=O)=O)c4)ccc32)sc1C(N)=O)c1ccccc1Cl [GSK907232] , give the reported %Inh.
37

For the molecule shown here, COc1ccc(Nc2nccc(NCCNC(=O)c3cc4ccccc4s3)n2)cc1 [GSK1379896] , give the reported %Inh.
15

For the molecule shown here, "Cc1cccc(NC(=O)Nc2ccc(Oc3ncnc4ccn(C)c34)cc2)c1" , give the reported %Inh.
0

###

# maps each entry to its %Inh
system: HUNK; conditions: concentration: 1 μM, replicates: in singlicate; n = 1
Give just the numeric value; % need not be written.

Solved cases below.
CN1CCN(Cc2cccc(-c3ccc4c(Nc5ccc(Oc6ccccc6)cc5)ccnc4c3)c2)CC1 | 11
C[C@@H]1CC[C@@H](C(=O)Nc2ccccc2)CN1c1cc(-c2ccc3c(N)n[nH]c3c2)nc(N)n1 | 11
O=C(Nc1ccccc1F)NC1CCN(c2ccnc(Nc3ccc(F)cc3)n2)CC1 | 6
CSc1cccc2c(-c3ccncn3)c(-c3ccc(F)cc3)nn12 | 8
Cc1cccc(NC(=O)Nc2ccc(Oc3ncnc4ccn(C)c34)cc2)c1 | 4

For the molecule shown here, "O=c1[nH]cc(-c2ccc(N3CCOCC3)cc2)c2sc(-c3cn[nH]c3)cc12" , give the reported %Inh.
11

For the molecule shown here, "Cn1cc(-c2ccc3c(c2)CCN3C(=O)Cc2cccc(F)c2)c2c(N)ncnc21" , give the reported %Inh.
13

For the molecule shown here, "O=C(O)C(F)(F)F.O=C(O)C(F)(F)F.O=c1[nH]ccc2nc(N[C@@H]3CCCNC3)nc(Nc3ccc(S(=O)(=O)N4CCOCC4)cc3)c12" , give the reported %Inh.
0

###

tested on: PRKCD; details: concentration: 1 μM, replicates: in singlicate; n = 1
readout: %Inh
Answer format: value, then unit.

Solved cases below.
COCCOCCOc1cc2ncc3c4ccc(C#N)cc4[nH]c3c2cc1OC | 0%
Cl.c1ccc(-c2ccc3c(Nc4ccc5[nH]ccc5c4)ccnc3c2)nc1 | 0%

For the compound shown here, "COc1ccc(Nc2nccc(NCCNC(=O)c3cc4ccccc4s3)n2)cc1" , give the reported %Inh.
0%

###

tested on: YSK4; construct: gene MAP3K19; conditions: concentration: 1 μM, replicates: in singlicate; n = 1
The threshold is inclusive: %Inh of exactly 30% counts as TRUE; values below receive FALSE.

Look over these answered cases.
COc1cccc(NC(=O)NC2CCN(c3ccnc(Nc4cc(OC)c(OC)c(OC)c4)n3)C2)c1 (centres unmarked) [GSK1379763] | TRUE
O=C(Nc1cccc(-c2nn3ccccc3c2-c2ccnc(Nc3cccc(F)c3)n2)c1)c1c(F)ccc(F)c1Cl [GSK357952] | FALSE
COC(=O)Nc1nc2ccc(Oc3ccc(NC(=O)Nc4cc(C(F)(F)F)ccc4F)cc3)cc2n1C.Cl [GW692089] | TRUE
O=C(Nc1n[nH]c2nc(-c3ccc(O)cc3)ccc12)C1CC1 [SB-710363] | TRUE
COc1cc(Nc2nccc(N3CCC(NC(=O)c4cc5ccccc5s4)C3)n2)cc(OC)c1OC (centres unmarked) [GSK1379760] | FALSE

hey, is %Inh for this one >= 30%? CN(C)S(=O)(=O)c1cc(-c2ccc3nccc(-c4cccc(S(N)(=O)=O)c4)c3c2)cnc1N [GSK1669921]
TRUE

hey, is %Inh for this one >= 30%? COc1ccc(CNC(=O)NC2CCN(c3ccnc(Nc4ccc(F)cc4)n3)CC2)cc1 [GSK1379788]
FALSE

hey, is %Inh for this one >= 30%? "Cc1cccc(NC(=O)Nc2ccc(Oc3ncnc4ccn(C)c34)cc2)c1"
TRUE

hey, is %Inh for this one >= 30%? C[C@@H](Oc1cc(-n2cnc3cc(-c4ccnc(NCCS(C)(=O)=O)c4)ccc32)sc1C(N)=O)c1ccccc1Cl [GSK907232]
TRUE

hey, is %Inh for this one >= 30%? CC(C)(C)c1ccc2nccc(Nc3cccc(O)c3)c2c1 [GW856795]
FALSE

hey, is %Inh for this one >= 30%? Clc1ccc(-c2nn3ncccc3c2-c2ccnc(Nc3ccc4c(c3)OCCO4)n2)cc1 [GW829116]
FALSE

hey, is %Inh for this one >= 30%? Nc1ncc(-c2ccc3nccc(-c4ccncc4)c3c2)cc1S(=O)(=O)N1CCOCC1 [GSK1627798]
TRUE

hey, is %Inh for this one >= 30%? "CC(=O)Nc1nc2cnc(Nc3cc(NC(=O)c4cccc(C5(C#N)CC5)c4Cl)ccc3C)nc2s1"
FALSE

hey, is %Inh for this one >= 30%? Cl.c1ccc(-c2ccc3c(Nc4ccc5[nH]ccc5c4)ccnc3c2)nc1 [GW440138]
TRUE

hey, is %Inh for this one >= 30%? Cl.Cl.NCC(C(=O)Nc1cc(Br)c(-c2ccnc3[nH]ccc23)s1)c1ccccc1 (centres unmarked) [GSK1269851]
TRUE

hey, is %Inh for this one >= 30%? c1ccc(Oc2ccc(Nc3ccnc4cc(-c5ccc(CNCCN6CCOCC6)o5)ccc34)cc2)nc1 [GW567145]
TRUE

hey, is %Inh for this one >= 30%? COc1cc(Nc2nccc(-c3c(-c4cccc(NC(=O)c5c(F)cccc5F)c4)nn4ccccc34)n2)cc(OC)c1OC [GSK323521]
TRUE

hey, is %Inh for this one >= 30%? Cc1cccc(Nc2nc(N[C@H]3CCNC3)ncc2C(N)=O)c1.Cl [GSK2197149]
TRUE

hey, is %Inh for this one >= 30%? Nc1ncc(-c2cccnc2)c2scc(-c3ccc4c(c3)CCN4C(=O)Cc3ccccc3)c12 [GSK683281]
TRUE

hey, is %Inh for this one >= 30%? O=C(Nc1ccccc1F)NC1CCN(c2ccnc(Nc3ccc(F)cc3)n2)CC1 [GSK1379800]
FALSE

hey, is %Inh for this one >= 30%? O=c1[nH]cc(-c2ccc(N3CCOCC3)cc2)c2sc(-c3cn[nH]c3)cc12 [GSK2276055]
TRUE

hey, is %Inh for this one >= 30%? CNC(=O)c1ccccc1Nc1nc(Nc2ccc(N3CCOCC3)cc2)ncc1Cl.Cl [GSK1576028]
TRUE

hey, is %Inh for this one >= 30%? Cn1cc(-c2ccc3c(c2)CCN3C(=O)Cc2cccc(Cl)c2)c2c(N)ncnc21 [GSK2606590]
TRUE
